The sequences listed here are annotated with their PBM E-score.
Biological target: Stb5 (UniProt P38699)
Sequence: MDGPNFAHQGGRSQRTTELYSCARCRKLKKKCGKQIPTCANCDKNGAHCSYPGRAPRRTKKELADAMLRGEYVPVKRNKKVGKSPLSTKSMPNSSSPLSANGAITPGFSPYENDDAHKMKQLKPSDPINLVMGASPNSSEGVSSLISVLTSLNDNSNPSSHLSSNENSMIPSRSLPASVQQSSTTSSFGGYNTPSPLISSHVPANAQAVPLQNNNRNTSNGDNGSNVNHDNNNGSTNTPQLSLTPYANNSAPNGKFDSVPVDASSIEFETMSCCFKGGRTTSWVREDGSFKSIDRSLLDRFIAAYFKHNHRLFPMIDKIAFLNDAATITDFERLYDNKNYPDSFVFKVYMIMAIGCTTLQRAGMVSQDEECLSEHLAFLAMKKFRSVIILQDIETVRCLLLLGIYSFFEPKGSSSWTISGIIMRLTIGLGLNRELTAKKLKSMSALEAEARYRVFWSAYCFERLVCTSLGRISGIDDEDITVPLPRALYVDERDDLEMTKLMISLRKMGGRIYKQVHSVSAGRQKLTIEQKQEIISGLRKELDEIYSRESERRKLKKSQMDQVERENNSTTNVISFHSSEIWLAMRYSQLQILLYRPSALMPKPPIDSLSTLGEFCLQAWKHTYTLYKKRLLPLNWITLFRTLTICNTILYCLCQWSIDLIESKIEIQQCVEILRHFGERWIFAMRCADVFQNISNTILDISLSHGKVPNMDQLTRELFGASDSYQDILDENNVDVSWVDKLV
Assay: PBM E-score (8-mer binding enrichment) (E-score (-0.5 to 0.5)); higher = stronger / more preferred TF binding
Details: protein concentration: 200 nM; construct: GST-full length
Over roughly 33,000 sequences, “E-score (-0.5 to 0.5)” has its median near -0.054; the highest 2% begin near 0.35. This excerpt belongs to a sample that is enriched for the highest values.
assay-readout: PBM E-score

1. AGGGTTAA -0.179
2. GGGGTTAA 0.404
3. GGGACCGA 0.257
4. AAAGGCCG 0.446
5. CAGGCCCG 0.109
6. CGGGTTAC 0.0485
7. CCCGGACC 0.185
8. CGCACGAA -0.0424
9. CATAAAGC -0.0703
10. AAGGCCCG 0.359
11. GCCGATCC 0.207
12. GGGGTTAC 0.397
13. ACCGGACA 0.321
14. CCAGAAGC 0.0499
15. AAGGCCGC 0.441
16. CGGACCTA 0.466
17. GACCTCTC -0.126
18. ACCGGACC 0.354
19. AGGACCTA 0.141
20. CTGACCGA -0.0342
21. CAAGGCCG 0.236
22. GCCGGACC 0.281

Origin of the recorded values: the supplement of paper PMC3334620
